FYI, the data here is from ChEMBL document CHEMBL5108001.

assay comment: Cytotoxicity against human GES1 cells assessed as cell viability at 125 uM
Type: toxicity, cell-based
test settings: read-out: Activity
readout label: viability at 125 µM (%)

INSERT INTO assay_data (structure_notation, quantitative_readout) VALUES
  ('O=C1c2cc(Cl)c3c4c(Oc5ccc(OCc6cn(CCCN7C[C@H](O)[C@@H](O)[C@H](O)[C@H]7CO)nn6)cc5)cc5c6c(cc(Oc7ccc(OCc8cn(CCCN9C[C@H](O)[C@@H](O)[C@H](O)[C@H]9CO)nn8)cc7)c(c7c(Oc8ccc(OCc9cn(CCCN%10C[C@H](O)[C@@H](O)[C@H](O)[C@H]%10CO)nn9)cc8)cc(c2c37)C(=O)N1Cc1cn(CCCN2C[C@H](O)[C@@H](O)[C@H](O)[C@H]2CO)nn1)c64)C(=O)N(Cc1cn(CCCN2C[C@H](O)[C@@H](O)[C@H](O)[C@H]2CO)nn1)C5=O', 92);
